All figures here come from ChEMBL document CHEMBL4428109.

Collected Emax values appear next to each entry.
Molecular target: Peroxisome proliferator-activated receptor alpha (Homo sapiens)
Sequence (whole entry): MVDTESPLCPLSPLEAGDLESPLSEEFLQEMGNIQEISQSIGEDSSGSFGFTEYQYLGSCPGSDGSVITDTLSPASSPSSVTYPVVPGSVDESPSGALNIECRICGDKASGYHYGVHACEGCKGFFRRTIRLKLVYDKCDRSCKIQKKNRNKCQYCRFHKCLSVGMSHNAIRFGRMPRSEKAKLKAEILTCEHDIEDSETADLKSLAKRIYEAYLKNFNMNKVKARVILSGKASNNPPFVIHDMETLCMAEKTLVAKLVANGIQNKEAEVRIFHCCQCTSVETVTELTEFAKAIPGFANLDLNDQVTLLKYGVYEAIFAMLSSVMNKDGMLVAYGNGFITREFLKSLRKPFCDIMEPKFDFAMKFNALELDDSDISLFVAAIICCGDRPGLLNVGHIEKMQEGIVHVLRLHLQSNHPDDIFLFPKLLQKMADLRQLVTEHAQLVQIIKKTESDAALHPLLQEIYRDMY
Test: Agonist activity at N-terminal Gal4 fused human PPARalpha LBD transfected in HEK293 cells after 24 hrs by luciferase reporter gene assay relative to GW7647
Assay type: cell-based

Given the compound CC(=O)N[C@@H](C)c1nc(-c2ccc(Oc3ccc(OCc4ccccc4)cc3)cc2)no1 , what is its reported Emax?
10 to 40%

Given the compound CCC(NC(C)=O)c1nc(-c2ccc(Oc3ccc(OCc4ccccc4)cc3)cc2)no1 (stereo unspecified) , what is its reported Emax?
10 to 40%

Given the compound CC(NC(=O)C(F)(F)F)c1nc(-c2ccc(Oc3ccc(OCc4ccccc4)cc3)cc2)no1 (stereo unspecified) , what is its reported Emax?
10 to 40%

Given the compound COC(=O)NC(C)c1nc(-c2ccc(Oc3ccc(OCc4ccccc4)cc3)cc2)no1 (stereo unspecified) , what is its reported Emax?
10 to 40%

Given the compound CC(=O)NC(C)c1nc(-c2ccc(Oc3ccc(OCc4ccccc4)cc3)cc2)no1 (stereo unspecified) , what is its reported Emax?
16 to 35%

Given the compound CC(=O)N[C@H](C)c1nc(-c2ccc(Oc3ccc(OCc4ccccc4)cc3)cc2)no1 , what is its reported Emax?
10 to 40%

###

target: Peroxisome proliferator-activated receptor delta (Homo sapiens); experiment: Agonist activity at N-terminal Gal4 fused human PPARdelta LBD transfected in HEK293 cells after 24 hrs by luciferase reporter gene assay relative to GW501516; assay type: cell-based
Reported Metric: Emax

Given the compound CC(NC(=O)C(F)(F)F)c1nc(-c2ccc(Oc3ccc(OCc4ccccc4)cc3)cc2)no1 (stereo not given) , what is its reported Emax?
5 to 15%

Given the compound CC(=O)NC(C)c1nc(-c2ccc(Oc3ccc(OCc4ccccc4)cc3)cc2)no1 (stereo not given) , what is its reported Emax?
5 to 10%

Given the compound COC(=O)NC(C)c1nc(-c2ccc(Oc3ccc(OCc4ccccc4)cc3)cc2)no1 (stereo not given) , what is its reported Emax?
5 to 15%

Given the compound CC(=O)N[C@@H](C)c1nc(-c2ccc(Oc3ccc(OCc4ccccc4)cc3)cc2)no1 , what is its reported Emax?
5 to 15%

Now consider the entry below.
Given the compound CCC(NC(C)=O)c1nc(-c2ccc(Oc3ccc(OCc4ccccc4)cc3)cc2)no1 (stereo not given) , what is its reported Emax?
5 to 15%
